# method_summary: Pharmacokinetics in rats
# Format: in vivo, SD rats
# test_parameters: both sexes, SD, rat, plasma, po; gavage 5-50 mg/kg
readout_name: half-life

Q: // returns reported half-life for input COc1ccc(CN2C3CC2CN(c2ccc(-c4cc(N5CC(C)(O)C5)cn5ncc(C#N)c45)cn2)C3)cn1
Ans: 3.61 to 4.49 h

---

# method_summary: Phase 1 trial: plasma pharmacokinetics
# Assay type: in vivo
# test_parameters: human, oral, 80 mg, Cycle 1 Day 28, 80 mg BID (n = 3), read-out: AUCINF_obs mean
readout_name: AUC(0-inf) (ng·h/mL)
Please give a number only; it is taken to be in ng·h/mL.

Q: // returns reported AUC(0-inf) for input COc1ccc(CN2C3CC2CN(c2ccc(-c4cc(N5CC(C)(O)C5)cn5ncc(C#N)c45)cn2)C3)cn1
Ans: 18800

---

# method_summary: Tissue distribution in rats
# Assay type: in vivo
# test_parameters: both sexes, rat, lung, po; 20 mg/kg gavage; read-out: Lung exposure (AUC0~24h)
readout_name: Kp
Just the number, please.

Q: // returns reported Kp for input COc1ccc(CN2C3CC2CN(c2ccc(-c4cc(N5CC(C)(O)C5)cn5ncc(C#N)c45)cn2)C3)cn1 [SY-5007]
Ans: 1.73

---

# method_summary: Phase 1 trial: plasma pharmacokinetics
# Format: in vivo
# test_parameters: human, 20 mg, Cycle 1 Day 1, 20 mg QD (n = 1), read-out: AUCINF_obs mean
readout_name: AUC(0-inf) (ng·h/mL)
Please give a number only; it is taken to be in ng·h/mL.

Q: // returns reported AUC(0-inf) for input COc1ccc(CN2C3CC2CN(c2ccc(-c4cc(N5CC(C)(O)C5)cn5ncc(C#N)c45)cn2)C3)cn1
Ans: 2410

---

# method_summary: Phase 1 trial: plasma pharmacokinetics
# Assay type: in vivo
# test_parameters: human, oral, 120 mg, Cycle 1 Day 28, 120 mg BID (n = 3), read-out: T1/2 mean (converted)
readout_name: half-life (h)
Please give a number only; it is taken to be in h.

Q: // returns reported half-life for input COc1ccc(CN2C3CC2CN(c2ccc(-c4cc(N5CC(C)(O)C5)cn5ncc(C#N)c45)cn2)C3)cn1
Ans: 7

---

# method_summary: Pharmacokinetics in beagles
# Format: in vivo
# test_parameters: both sexes, beagle, dog, plasma, iv; 1 mg/kg i.v.
readout_name: clearance (mL/min/kg)
Please give a number only; it is taken to be in mL/min/kg.

Q: // returns reported clearance for input COc1ccc(CN2C3CC2CN(c2ccc(-c4cc(N5CC(C)(O)C5)cn5ncc(C#N)c45)cn2)C3)cn1
Ans: 6.63

---

readout_name: pIC50
Just so you know, pIC50 here is -log10 of the concentration in molar units; reply with that number alone.

Q: Which measured pIC50 belongs to COc1ccc(CN2C3CC2CN(c2ccc(-c4cc(N5CC(C)(O)C5)cn5ncc(C#N)c45)cn2)C3)cn1 [SY-5007] , tested on CYP2C9 (Homo sapiens, UniProt P11712)?
Ans: 5.18

---

# method_summary: Phase 1 trial: plasma pharmacokinetics
# Type: in vivo
# test_parameters: human, 80 mg, Cycle 1 Day 1, 80 mg BID (n = 3), read-out: AUC0–12 h mean
readout_name: AUC(0-t)
Provide a numeric answer, followed by its unit.

Q: // returns reported AUC(0-t) for input COc1ccc(CN2C3CC2CN(c2ccc(-c4cc(N5CC(C)(O)C5)cn5ncc(C#N)c45)cn2)C3)cn1 [SY-5007]
Ans: 5150 ng·h/mL
